# MEASURED_ON: PKA type Iα (RIα/Cα) holoenzyme (Homo sapiens, UniProt P10644)
# ASSAY_OVERVIEW: Cook coupled spectrophotometric kinase assay, suppression (antagonist) assay, PKA type Iα
# Type: biochemical
# CONDITIONS: antagonists relative to Rp-8Br-cAMPS
Where a name gives a salt, the structure may show the parent alone.
Measured relative potency*, listed per entry.

// solved cases for relative potency* follow
Query block: Enter reported relative potency* observed with PKA type Iα (RIα/Cα) holoenzyme (Homo sapiens, UniProt P10644) for CC(=O)c1nc2c(N)ncnc2n1C1OC2COP(O)(=S)OC2C1O (stereo not shown) [Rp-8-acetyl-cAMPS]
Result block: 0.86

Query block: // query: Nc1ncnc2c1nc(-c1cc3ccccc3o1)n2C1OC2COP(O)(=S)OC2C1O (stereo not shown) [Rp-8-benzofuryl-cAMPS]
Result block: 0.49

Query block: Please answer likewise for Nc1ncnc2c1nc(-c1ccccc1)n2C1OC2COP(O)(=S)OC2C1O (stereo not shown) [Rp-8-phenyl-cAMPS]
Result block: 1.28

From here, focus on the item given below.
Query block: Report relative potency* for Nc1ncnc2c1nc(-c1cccs1)n2C1OC2COP(O)(=S)OC2C1O (stereo not shown) [Rp-8-(2-thienyl)-cAMPS, ammonium salt] tested on PKA type Iα (RIα/Cα) holoenzyme (Homo sapiens, UniProt P10644).
Result block: 3.01

###

# MEASURED_ON: PKA type Iα (holo RIα) (Homo sapiens, UniProt P10644)
# ASSAY_OVERVIEW: Biacore surface competition ligand binding assay, holo RIα
# CONDITIONS: Rp-8-AHA cAMPS surface, 10 nM holo RIα
Where a name gives a salt, the structure may show the parent alone.
MEASURED_METRIC: pEC50
Recall that pEC50 is obtained by taking minus log10 of the concentration measured in molar.

Query block: Need pEC50 of Nc1ncnc2c1nc(-c1ccco1)n2C1OC2COP(O)(=S)OC2C1O (centres unmarked) [Rp-8-(2-furyl)-cAMPS, ammonium salt] , thanks.
Result block: 6.42

New cases:
Query block: I'd like to know its pEC50. The compound in question is Nc1ncnc2c1nc(-c1ccoc1)n2C1OC2COP(O)(=S)OC2C1O (centres unmarked) [Rp-8-(3-furyl)-cAMPS, ammonium salt]
Result block: 6.13

###

# MEASURED_ON: PKA type IIα (RIIα holoenzyme) (Homo sapiens, UniProt P13861)
# ASSAY_OVERVIEW: Cook assay, activation of Holo RIIα
# CONDITIONS: read-out: EC50 (activation constant of Holo RIIα with agonist); 10 nM Holo RIIα, 3 minute preincubation
MEASURED_METRIC: EC50
Reply with a number, then the unit it belongs to.

Query block: # get_value(readout='EC50', item= Nc1ncnc2c1nc(Br)n2[C@@H]1O[C@@H]2COP(O)(=S)O[C@@H]2C1O (stereo partly shown) [Sp-8-Br-cAMPS, reference compound] )
Result block: 294 nM

###

# MEASURED_ON: PKA type Iα (RIα/Cα) holoenzyme (Homo sapiens)
# ASSAY_OVERVIEW: Cook coupled spectrophotometric kinase assay, suppression (antagonist) assay, PKA type Iα
# Format: biochemical
# CONDITIONS: PKA type Iα enzymatic activity, relative to the known Rp-8-Br-cAMPS
Counter-ions that a name gives are not always drawn.
Potency values by entry
Number only, no unit.

See these solved cases before continuing.
Query block: # Potency lookup, item Nc1ncnc2c1nc(-c1ccsc1)n2C1OC2COP(O)(=S)OC2C1O (centres unmarked) [Rp-8-(3-thienyl)-cAMPS]
Result block: 1.83

Query block: # iterate: Nc1ncnc2c1nc(-c1ccccc1)n2C1OC2COP(O)(=S)OC2C1O (centres unmarked) [Rp-8-phenyl-cAMPS]
Result block: 1.28

New cases:
Query block: For Nc1ncnc2c1nc(-c1ccoc1)n2C1OC2COP(O)(=S)OC2C1O (centres unmarked) [Rp-8-(3-furyl)-cAMPS, ammonium salt] , what is its reported Potency?
Result block: 2.23

Query block: Can you check Nc1ncnc2c1nc(-c1cccs1)n2C1OC2COP(O)(=S)OC2C1O (centres unmarked) [Rp-8-(2-thienyl)-cAMPS, ammonium salt] next?
Result block: 3.01

Query block: Same for Nc1ncnc2c1nc(-c1ccco1)n2C1OC2COP(O)(=S)OC2C1O (centres unmarked) [Rp-8-(2-furyl)-cAMPS, ammonium salt]
Result block: 4.24

###

# MEASURED_ON: PKA type IIα (RIIα holoenzyme) (Homo sapiens, UniProt P13861)
# ASSAY_OVERVIEW: Cook kinase assay, suppression assay, PKA type IIα
# Assay type: biochemical
# CONDITIONS: reversal of Sp-8-Br-cAMP-mediated PKA type II activation; 1 μM Sp-8-Br cAMPS, 10 nM RIIα holoenzyme; read-out: half-maximal antagonistic effect (IC50 or EC50)
MEASURED_METRIC: IC50 (µM)
# output: bare number, implied unit µM

Query block: Record Nc1ncnc2c1nc(-c1ccccc1)n2C1OC2COP(O)(=S)OC2C1O (stereo not shown) : what is its IC50 with PKA type IIα (RIIα holoenzyme) (Homo sapiens, UniProt P13861)?
Result block: 48.6

###

# pEC50 per record follows
# MEASURED_ON: PKA type IIα (RIIα holoenzyme) (Homo sapiens)
# ASSAY_OVERVIEW: Cook kinase assay, suppression assay, PKA type IIα
# Type: biochemical
# CONDITIONS: Table 2, Holo RIIa; unit inferred; read-out: EC50 inhibition
Where a name gives a salt, the structure may show the parent alone.
Scale note: pEC50 = -log10(concentration in M).

Query block: For the molecule shown here, Nc1ncnc2c1nc(-c1ccccc1)n2C1OC2COP(O)(=S)OC2C1O (centres unmarked) [Rp-8-phenyl-cAMPS] , give the reported pEC50.
Result block: 4.31

***
Query block: Form field: reported pEC50 of Nc1ncnc2c1nc(-c1ccco1)n2C1OC2COP(O)(=S)OC2C1O (centres unmarked) [Rp-8-(2-furyl)-cAMPS, ammonium salt]
Result block: 4.94

###

# MEASURED_ON: PKA type Iα (RIα/Cα) holoenzyme (Homo sapiens)
# ASSAY_OVERVIEW: Cook coupled spectrophotometric kinase assay, suppression (antagonist) assay, PKA type Iα
# Assay type: biochemical
# CONDITIONS: antagonists relative to Rp-8Br-cAMPS
Counter-ions that a name gives are not always drawn.
MEASURED_METRIC: relative potency*

Consider the following illustrative entries.
Query block: Which relative potency* value is on record for Nc1ncnc2c1nc(-c1ccc(CO)o1)n2C1OC2COP(O)(=S)OC2C1O (stereo not shown) [Rp-8-(5-MeOH-2-furyl)-cAMPS] ?
Result block: 0.68

Query block: Item: Nc1ncnc2c1nc(-c1ccoc1)n2C1OC2COP(O)(=S)OC2C1O (stereo not shown) [Rp-8-(3-furyl)-cAMPS, ammonium salt]
Result block: 2.23

Query block: Consider next the molecule Nc1ncnc2c1nc(-c1ccsc1)n2C1OC2COP(O)(=S)OC2C1O (stereo not shown) [Rp-8-(3-thienyl)-cAMPS] in the same way.
Result block: 1.83

Query block: Also need CCc1nc2c(N)ncnc2n1C1OC2COP(O)(=S)OC2C1O (stereo not shown) [Rp-8-ethyl-cAMPS] , thanks.
Result block: 0.22

Query block: Now give it for Cc1ccc(-c2nc3c(N)ncnc3n2C2OC3COP(O)(=S)OC3C2O)o1 (stereo not shown) [Rp-8-(5-Me-2-furyl)-cAMPS] too.
Result block: 1.17

Query block: Param item: Nc1ncnc2c1nc(-c1ccc(Br)o1)n2C1OC2COP(O)(=S)OC2C1O (stereo not shown) [Rp-8-(2-Br-5-furyl)-cAMPS]
Result block: 0.45

More entries:
Query block: Which relative potency* value belongs to Nc1ncnc2c1nc(-c1ccco1)n2C1OC2COP(O)(=S)OC2C1O (stereo not shown) [Rp-8-(2-furyl)-cAMPS, ammonium salt] ?
Result block: 4.24

###

# MEASURED_ON: PKA type Iα (RIα/Cα) holoenzyme (Homo sapiens)
# ASSAY_OVERVIEW: Cook coupled spectrophotometric kinase assay, suppression (antagonist) assay, PKA type Iα
# Format: biochemical
# CONDITIONS: reversal of Sp-8-Br-cAMP-mediated PKA activation; 1 μM Sp-8-Br-cAMPS, 10 nM RIα holoenzyme; read-out: half-maximal antagonistic effect (IC50 or EC50)
pIC50: −log10 of the molar value. Counter-ions that a name gives are not always drawn.
Assign class by pIC50: not lower than 6 means label 1; lower than 6 means label 0.

Please review the entries below; each comes with its answer.
Query block: Form field: pIC50 at least 6? Entry: CCc1nc2c(N)ncnc2n1C1OC2COP(O)(=S)OC2C1O (centres unmarked) [Rp-8-ethyl-cAMPS]
Result block: label 0

Query block: Now try Nc1ncnc2c1nc(-c1ccc(Br)o1)n2C1OC2COP(O)(=S)OC2C1O (centres unmarked) [Rp-8-(2-Br-5-furyl)-cAMPS] .
Result block: label 0

Query block: Do the same for Nc1ncnc2c1nc(-c1cccs1)n2C1OC2COP(O)(=S)OC2C1O (centres unmarked) [Rp-8-(2-thienyl)-cAMPS, ammonium salt] please
Result block: label 1

Query block: And then Nc1ncnc2c1nc(-c1ccoc1)n2C1OC2COP(O)(=S)OC2C1O (centres unmarked) [Rp-8-(3-furyl)-cAMPS, ammonium salt] , what is it?
Result block: label 1

Query block: Same question, Nc1ncnc2c1nc(-c1ccc(CO)o1)n2C1OC2COP(O)(=S)OC2C1O (centres unmarked) [Rp-8-(5-MeOH-2-furyl)-cAMPS] this time
Result block: label 0

--- query ---
Query block: Kindly determine if pIC50 recorded for CC(=O)c1nc2c(N)ncnc2n1C1OC2COP(O)(=S)OC2C1O (centres unmarked) [Rp-8-acetyl-cAMPS] is above or exactly 6.
Result block: label 0
